Taken from PubChem BioAssay (NCATS).

measurement.description: Quantitative High-Throughput drug screen in 47 multiple myeloma cell lines against the NCATS MIPE library collection: OCIMY5_PLB cell viability assay (AID 1918988); further: potency means the concentration at half of the fitted maximal effect; nearly all actives have a fitted effect of over 65% in size
condition: OCI-MY5 myeloma viability, ATP luminescence, 48 h; series mostly up to 45.8 µM
Results filed as inconclusive are left out. The source made the active and inactive calls. The call rests on the fitted dose curve; in most records, active means well fitted cell-killing curve with a large enough effect; inconclusive means small, poorly fitted or top-dose-only effect, or effect the other way; inactive means no such curve, though single readings can be large or run the other way.
Provide the reported Potency of each item.

Sample answers from the record:
[[record]]
smiles_repr = "COc1ccc(-c2cc(=O)c3c(O)cc(O[C@@H]4O[C@H](CO[C@@H]5O[C@@H](C)[C@H](O)[C@@H](O)[C@@H]5O)[C@@H](O)[C@H](O)[C@@H]4O)cc3o2)cc1O"
meas_value = "18.7 µM (active)"

[[record]]
smiles_repr = "CCNC(=O)Nc1ccc(Oc2ncnc(N)c2C=NOC)cc1Cl"
meas_value = "14.8 µM (active)"

[[record]]
smiles_repr = "C#CCN(C)CC1=Cc2ccccc2Oc2ccccc21"
meas_value = "20.9 µM (active)"

[[record]]
smiles_repr = "C[C@@H]1CC=CC=CC=CC=C[C@@H](O[C@@H]2O[C@H](C)[C@@H](O)[C@H](N)[C@H]2O)C[C@@H]2O[C@](O)(C[C@@H](O)C[C@@H]3O[C@@H]3C=CC(=O)O1)C[C@H](O)[C@@H]2C(=O)O"
meas_value = "11.8 µM (active)"


# context switch: different molecule, same Potency
Exercise: Entry under review: CCN1CCN(c2ccc(Nc3cc(N(C)C(=O)Nc4c(Cl)c(OC)cc(OC)c4Cl)ncn3)cc2)CC1 . Reported Potency?
Key: 13.2 µM (active)

* * *

Provide the reported Potency of each item.
assay.target: Cytochrome P450 2D6 (Homo sapiens) (UniProt P10635)
Sequence (P10635 whole entry, looked up): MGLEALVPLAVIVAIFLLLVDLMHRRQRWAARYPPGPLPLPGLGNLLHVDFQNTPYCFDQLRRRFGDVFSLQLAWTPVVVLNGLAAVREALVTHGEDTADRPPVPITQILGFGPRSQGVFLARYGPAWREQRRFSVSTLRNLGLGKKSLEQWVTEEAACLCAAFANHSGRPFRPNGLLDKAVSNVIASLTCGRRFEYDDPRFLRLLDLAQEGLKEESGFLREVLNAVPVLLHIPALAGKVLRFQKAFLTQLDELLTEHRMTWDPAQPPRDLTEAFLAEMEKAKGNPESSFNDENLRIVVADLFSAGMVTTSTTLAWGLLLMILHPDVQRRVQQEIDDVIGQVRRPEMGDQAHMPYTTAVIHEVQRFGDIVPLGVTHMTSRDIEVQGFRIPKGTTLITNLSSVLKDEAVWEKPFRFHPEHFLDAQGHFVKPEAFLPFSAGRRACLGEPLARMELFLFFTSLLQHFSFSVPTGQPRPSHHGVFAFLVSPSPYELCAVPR
measurement.description: Cytochrome P450 family 2 subfamily D member 6 (CYP2D6) small molecule antagonists: luciferase biochemical (cell-free) qHTS assay (AID 1645840); further: potency means the concentration at half of the fitted maximal effect; nearly all actives have a fitted effect of over 55% in size
condition: P450-Glo CYP2D6 enzyme, luciferin luminescence, 1 h; series mostly up to 57.4 µM
Results filed as inconclusive are left out. The source made the active and inactive calls. Calls come from the whole dose curve; as a rule, active = well fitted inhibition curve with a large enough effect in the repeat runs; inconclusive = weak or mixed curves; inactive = flat fitted curve, though single readings scatter.

Sample answers from the record:
[[record]]
smiles_repr = "Cc1nc2c([nH]1)CCN(C(=O)c1ccc(NC(=O)c3ccccc3-c3ccccc3)cc1)c1ccccc1-2"
assay_target = "Cytochrome P450 2D6 (Homo sapiens) (UniProt P10635)"
measure = "Potency"
meas_value = "4.77 µM (active)"

[[record]]
smiles_repr = "CC(C)(O)CC(=O)NCCn1ccc2ncnc(Nc3ccc(Oc4cccc(C(F)(F)F)c4)c(Cl)c3)c21"
assay_target = "Cytochrome P450 2D6 (Homo sapiens) (UniProt P10635)"
measure = "Potency"
meas_value = "12 µM (active)"


# context switch: different molecule, same Potency
Exercise: Entry under review: CC1CCN(c2cc(N3CCN(C)CC3)ccc2NC(=O)c2cc(C#N)c[nH]2)CC1 . Reported Potency?
Key: 1.2 µM (active)

* * *

measurement.description: qHTS profiling of the MIPE4 collection as inhibitors of Plasmodium falciparum (3D7) proliferation (AID 743344);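 further: scaled between DMSO vehicle wells and 0.29 µM artemisinin as full inhibition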
condition: P. falciparum 3D7 in erythrocytes, SYBR Green DNA fluorescence, 72 h; at 28.5 µM (top of the series) unless noted
Provide the reported parasite growth, % of DMSO control of each item.
Reply with the number, then its unit.

Sample answers from the record:
[[record]]
molecule = "N#Cc1ccc(Oc2ccc3c(c2)COB3O)cc1"
meas_value = "35.7%"

[[record]]
molecule = "CN1c2ccccc2C(=O)N2CCc3c([nH]c4ccccc34)C21 (centres undefined)"
meas_value = "94.3%"

[[record]]
molecule = "CS(=O)(=O)c1ccc(C2=C(c3ccccc3)C(=O)OC2)cc1"
meas_value = "94.3%"


# context switch: different molecule, same parasite growth, % of DMSO control
Exercise: Entry under review: CCC(C)SSc1ncc[nH]1 (centres undefined) . Reported parasite growth, % of DMSO control?
Key: 86.2%
